Provenance of the data: patent US10894775B2

Each entry below lists one item and its recorded EC50 value.
Target: glutathione-S-transferase (GST) tagged LXRalpha LBD (ligand binding domain) (Homo sapiens, UniProt Q13133)
Construct: purchased Invitrogen pv4655
Sequence (Q13133 209-447 limits assumed): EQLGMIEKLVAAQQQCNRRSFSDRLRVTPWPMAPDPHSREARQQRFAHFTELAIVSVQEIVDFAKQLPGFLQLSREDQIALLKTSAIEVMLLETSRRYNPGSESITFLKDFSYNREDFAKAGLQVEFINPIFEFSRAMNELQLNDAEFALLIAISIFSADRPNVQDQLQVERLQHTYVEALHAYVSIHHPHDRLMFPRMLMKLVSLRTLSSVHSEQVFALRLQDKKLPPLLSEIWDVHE
Assay: LanthaScreen TR-FRET Liver X Receptor Coactivator Assay, LXR alpha
Format: biochemical
Settings: potency (Inflection Point) of compound-induced co-activator recruitment, TR-FRET; read-out: LXR alpha IP
outcome-measure: EC50 (nM)

>>> df
                                    compound  measured
 0  CN(C)C(=O)c1ccc(N(C)CCC2CC23CCN(C(=O)C(C)(C)c2ccccc2)CC3)cc1Cl (single isomer, unassigned)       797
 1  CN(C)C(=O)c1ccc(NCCC[C@H]2CC23CCN(C(=O)[C@](O)(c2ccccc2)C(F)(F)F)CC3)nc1Cl (single isomer, unassigned)      1400
 2  CN(C)C(=O)c1ccc(NCCCCC2CCN(C(=O)OCc3ccccc3)CC2)cc1Cl      1970
 3  NC(=O)c1ccc(NCCCCC2CCN(C(=O)C(O)(c3ccccc3)C(F)(F)F)CC2)cc1Cl (single isomer, unassigned)       266
 4  CNC(=O)c1ccc(NCCCCC2CCN(C(=O)C(O)(c3cccc(OC(C)C)c3)C(F)(F)F)CC2)cc1Cl (single isomer, unassigned)      2090
 5  CN(C)C(=O)c1ccc(NCCC2CC3(CCN(C(=O)C(O)(c4ccccc4)C(F)(F)F)CC3)C2)cc1Cl (single isomer, unassigned)       321
 6  CNC(=O)c1ccc(NCCCCC2CCN(C(=O)C(O)(c3cccc(Cl)c3)C(F)(F)F)CC2)cc1Cl (single isomer, unassigned)       239
 7  CN(C)C(=O)c1ccc(CCCCC2CCN(C(=O)C(C)(C)c3ccccc3)CC2)cc1Cl       463
 8  CNC(=O)c1ccc(NCCC[C@@H]2CC23CCN(C(=O)[C@](O)(C(C)C)C(F)(F)F)CC3)cc1Cl (single isomer, unassigned)       869
 9  CN(C)C(=O)c1ccc(NCCCCC2CCN(C(=O)C(O)(c3ccccc3)C(F)(F)F)CC2)cc1Cl (single isomer, unassigned)       147
10  CC(CC1CC12CCN(C(=O)C1(c3ccccc3)CCC1)CC2)Nc1ccc(C(=O)N(C)C)c(Cl)c1 (single isomer, unassigned)       220
11  CNC(=O)c1ccc(NCCCCC2CCN(C(=O)C(O)(c3cccc(OC4CC4)c3)C(F)(F)F)CC2)cc1Cl (single isomer, unassigned)      3160

====

Each entry below lists one item and its recorded pEC50 value.
Molecular target: glutathione-S-transferase (GST) tagged LXRbeta LBD (ligand binding domain) (Homo sapiens)
Construct: purchased Invitrogen pv4658.pps
Sequence (P55055 222-460 limits assumed): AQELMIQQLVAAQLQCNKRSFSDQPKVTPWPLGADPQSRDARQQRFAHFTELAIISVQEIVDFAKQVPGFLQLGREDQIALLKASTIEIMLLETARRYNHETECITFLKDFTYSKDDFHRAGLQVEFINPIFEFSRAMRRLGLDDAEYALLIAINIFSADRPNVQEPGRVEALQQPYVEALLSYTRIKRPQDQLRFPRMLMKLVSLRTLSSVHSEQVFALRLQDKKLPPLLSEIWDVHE
Experiment: LanthaScreen TR-FRET Liver X Receptor Coactivator Assay, LXR beta
Type: biochemical
Details: potency (Inflection Point) of compound-induced co-activator recruitment, TR-FRET; read-out: LXR beta IP
Protocol: While running the LanthaScreen™ TR-FRET Liver X Receptor Coactivator Assay, LXR alpha-LBD or LXR beta-LBD was added to ligand test compounds followed by addition of a mixture of a fluorescein-labelled coactivator peptide and terbium-conjugated anti-GST antibody. After an incubation period at room temperature, TR-FRET (time-resolved fluorescence resonance energy transfer) was measured using a filter-based instrument capable of TR-FRET, e.g. PerkinElmer Envision.
pEC50: −log10 of the molar value.
outcome-measure: pEC50

>>> print(df.to_string())
                                   compound  measured
0  CN(C)C(=O)c1ccc(NC[C@H]2C[C@@H]2C2CCN(C(=O)[C@](O)(c3ccccc3)C(F)(F)F)CC2)cc1Cl (single isomer, unassigned) [Example 8-2]      7.85
1  CN(C)C(=O)c1ccc(NCCC[C@@H]2CC23CCN(C(=O)[C@](O)(c2ccccc2)C(F)(F)F)CC3)cc1Cl (single isomer, unassigned) [Example 6-1]      7.82
2  O=C(c1ccc(NCCC[C@@H]2CC23CCN(C(=O)[C@](O)(c2ccccc2)C(F)(F)F)CC3)cc1Cl)N1CCCC1 (single isomer, unassigned) [Example 6-4]      7.47
